- Tested on: NCI-H226
- assay_info: NCI tumour cell line growth inhibition, 48 h
The source made the active and inactive calls. Rule as the data show it: active = GI50 up to about 1.1 µM and inactive = higher.
recorded_endpoint: GI50

# count of solved cases: 8
| compound | GI50 |
| --- | --- |
| COc1ccc(CNc2nc3ccccc3nc2C(=O)O)cc1OC | > 100 µM (inactive) |
| CC(C)OC(=O)c1cc(NC(=S)OC(C)C)ccc1Cl | 18.3 µM (inactive) |
| CCCCCC(=O)OC[n+]1ccc2c(C)c3[nH]c4ccc(OC)cc4c3c(C)c2c1 | 0.276 µM (active) |
| COc1cc(OC)c(C#N)c(OC)c1C | > 100 µM (inactive) |
| CCN(CC)c1nc(=O)c(C(=O)C(C)(C)C)c(C(C)(C)C)o1 | > 100 µM (inactive) |
| CC1=C(C(=O)NNC(=O)C(N)=O)CC(C(=O)NNC(=O)C(N)=O)=C(C)N1 | > 100 µM (inactive) |
| COc1cc(C(O)CCBr)c(OC)cc1C (stereo unspecified) | 32.9 µM (inactive) |
| CCOC(=O)Cc1csc2[n+]1C(=O)/C(=C\c1cccc(Cl)c1Cl)S2 | 14.8 µM (inactive) |

Record GI50 for all entries; do not skip any.
1. CCOc1cc(NC(C)=O)ccc1C(=O)NNS(=O)(=O)c1ccc(NC(C)=O)cc1
2. CN(C)CCN1C(=O)c2ccccc2C1(O)c1ccc(Cl)cc1 (stereo unspecified)
3. CCOC(=O)C(C)(C)Oc1ccc(/C=C/C(=O)c2ccc(Cl)cc2)cc1

1: 25.2 µM (inactive); 2: 66.7 µM (inactive); 3: 30 µM (inactive)

====

- Test system: HL-60
- assay_info: NCI tumour cell line growth inhibition, 48 h
Active and inactive are the calls of the source. No stated cut-off is given here; in the data, active = GI50 up to about 1.1 µM and inactive = higher.
recorded_endpoint: GI50

| compound | GI50 |
| --- | --- |
| COC(=O)N/N=C/c1oc(-c2cccc([N+](=O)[O-])c2)c(-c2cccc([N+](=O)[O-])c2)c1[N+](=O)[O-] | 19.3 µM (inactive) |

Kindly give each listed record's GI50.
1. C[N+]1(CCCC[N+]2(C)CCCCCCC2)CCCCCCC1
2. O=C(Nc1ccccc1)C(=O)C(C(=O)c1ccccc1F)C1OC(=O)c2ccccc21 (stereo not given)
3. CCP(=O)(OC)C1=CCN(C(=O)OCC[Si](C)(C)C)CC1 (stereo not given)
4. CC(=O)OC(OC(C)=O)c1ncccc1C(=O)OC(C)C
5. CCOC(=O)/C=C\[C@H]1OC(C)(C)O[C@H]1[C@H](O)[C@H]1COC(C)(C)O1
6. Cn1c2ccccc2c(=O)c2ccc(Cl)cc21
7. COC(=O)c1csc([C@@H](OC(=O)[C@H](C)[C@H](CCCC(C)(Cl)Cl)OC(=O)c2csc([C@H](O)CO)n2)C(C)C)n1
8. CC(C)(C)[Si](C)(C)OCC1OC(n2cnc3c(N)ncnc32)C2OC(=S)OC12 (stereo not given)

> 100 µM (inactive)
24.4 µM (inactive)
> 100 µM (inactive)
8.65 µM (inactive)
22.8 µM (inactive)
9.95 µM (inactive)
17.9 µM (inactive)
> 100 µM (inactive)

# lookup: GI50 of CCOC(=O)C(/C(=N\NC(=O)OC)C(=O)Nc1cc(OC)ccc1OC)c1cnc2ccccc2n1 (stereo not given)
69.2 µM (inactive)
